target: T1, soluble recombinant human uPAR/His6 (R&D Systems, Cat. # 807-UK-100) (human, UniProt Q03405 23-303); experiment: low resolution Biacore, mAb captured by goat anti-human, hu-uPAR 312 nM;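 note: surface plasmon resonance on a CM5 chip with goat anti-human antibody surface made by amine coupling, each mAb from supernatant captured per flow cell, kinetics fitted including mass transport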
T1 construct: range 1-303; Bought protein; also called soluble uPAR; hu-uPAR
T1 sequence (Q03405 other isoform, or with tags, fused parts or gaps limits assumed, form in doubt): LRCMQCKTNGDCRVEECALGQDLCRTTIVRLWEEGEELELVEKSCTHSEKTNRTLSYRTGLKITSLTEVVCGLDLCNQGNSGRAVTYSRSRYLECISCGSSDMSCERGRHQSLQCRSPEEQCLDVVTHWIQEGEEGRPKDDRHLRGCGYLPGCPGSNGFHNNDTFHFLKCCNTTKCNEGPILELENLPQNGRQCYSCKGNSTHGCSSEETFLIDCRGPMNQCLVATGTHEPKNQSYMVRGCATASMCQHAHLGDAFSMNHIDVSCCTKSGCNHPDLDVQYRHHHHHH

binder	koff
anti-uPAR monoclonal antibody 1.41.1 (antibody, V domains shown) VH: QVQLVESGGGVVQPGRSLRLSCAAPGFTFSSYGMHWVRQAPGKGLEWVAVIWYDGSQKYYADSVKGRFTISRDNSKNTLYLQMNSLRAEDTAVYYCARGMTYYYYYGMDVWGQGTTVTVSS VL: EIVMTQSPAILSVSPGERATLSCRASQSVSSKLDWYQQKPGQAPRLLIYGASTRATGIPARFSGSGSGTEFTLTISSLQSEDFAVYYCQQYNNWPRTFGQGTKVEIK	0.00013 s⁻¹
